Target: T1, human MerTK on M2c-differentiated human macrophages (human, UniProt Q12866 21-999)
T1 sequence: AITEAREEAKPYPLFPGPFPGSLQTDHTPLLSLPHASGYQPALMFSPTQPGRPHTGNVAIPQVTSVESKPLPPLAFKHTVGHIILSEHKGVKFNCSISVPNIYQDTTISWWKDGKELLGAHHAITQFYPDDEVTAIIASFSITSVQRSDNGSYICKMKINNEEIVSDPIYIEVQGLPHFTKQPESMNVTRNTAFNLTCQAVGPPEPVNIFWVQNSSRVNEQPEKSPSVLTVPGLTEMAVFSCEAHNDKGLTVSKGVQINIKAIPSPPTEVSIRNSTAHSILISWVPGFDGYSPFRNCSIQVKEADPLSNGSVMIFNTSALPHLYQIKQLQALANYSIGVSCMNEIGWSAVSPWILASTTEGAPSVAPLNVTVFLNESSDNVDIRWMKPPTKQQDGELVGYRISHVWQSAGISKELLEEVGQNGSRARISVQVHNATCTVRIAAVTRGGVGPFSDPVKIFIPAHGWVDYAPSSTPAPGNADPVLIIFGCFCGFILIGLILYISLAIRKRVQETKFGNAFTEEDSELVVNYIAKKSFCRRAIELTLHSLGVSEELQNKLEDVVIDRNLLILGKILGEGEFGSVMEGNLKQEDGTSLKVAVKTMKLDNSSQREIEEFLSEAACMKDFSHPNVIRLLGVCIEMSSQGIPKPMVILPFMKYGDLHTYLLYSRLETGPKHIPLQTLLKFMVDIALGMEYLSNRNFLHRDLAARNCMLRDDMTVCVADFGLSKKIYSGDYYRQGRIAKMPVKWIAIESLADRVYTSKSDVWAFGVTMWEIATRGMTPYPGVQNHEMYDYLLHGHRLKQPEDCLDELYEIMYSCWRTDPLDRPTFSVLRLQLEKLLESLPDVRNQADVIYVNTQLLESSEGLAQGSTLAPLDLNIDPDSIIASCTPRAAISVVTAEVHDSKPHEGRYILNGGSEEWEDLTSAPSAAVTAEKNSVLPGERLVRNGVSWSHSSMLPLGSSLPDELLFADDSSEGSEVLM
Assay: cell-based or functional assay
REPORTED PROPERTY: Average Efferocytosis blocking IC50
A complete answer gives the number and then names the unit.

Using the record for monovalent anti-MerTK antibody MTK-16.2 (antibody, V domains shown) VH: QVQLVQSGSELKKPGASVKVSCKASGYTFTNHGMNWVRQAPGQGLEWMGWINTYTGEPTYADDFKGRFVFSLDTSVSTAYLQISSLKAEDTAVYYCARKGVTAARYFDYWGQGTLVTVSS VL: DIQMTQSPSSLSASVGDRVTITCRASQNVRTAVAWYQQKPGKAPKRLIYLASNRHTGVPSRFSGSGSGTEFTLTISNLQPEDFATYYCLQHWNYPLTFGGGTKLEIK , state its measured Average Efferocytosis blocking IC50.
37.9 nM
